B1: E3 ubiquitin-protein ligase NEDD4, residues 836 to 881; numbered along this chain, P46934 (parent)
chain: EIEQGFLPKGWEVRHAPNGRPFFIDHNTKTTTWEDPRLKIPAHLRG

Variants of: B1
Assay: abundance fitness (aPCA) (normalised: wild type 0, dead -1); higher = more abundant; growth selection in yeast, the domain comes from the species named
Conditions: Homo sapiens
Record T whenever abundance fitness is at -0.4 or higher; record F when lower.

The examples below pair each entry with its known result.
>  <VARIANT NAME>
N27D

>  <LABEL>
T

$$$$
>  <VARIANT NAME>
P36K

>  <LABEL>
F

$$$$
>  <VARIANT NAME>
H43V

>  <LABEL>
T

$$$$

Test whether the variant N18W records abundance fitness of -0.4 or higher.
F

# iterate: E34Q
T

How about this variant: I24P
F

Next entry: F22C
T

Can you handle T28N next?
T

// repeat for K39F and report
F

How about this variant: P41D
T

Try this variant next: R20K
T

Try this variant next: A42Y
T

Follow-up entry: T30S
T

// query: T30L
T

Here is the next variant: I40G
T

Now try R20Q .
T

Next variant up: P36A
F

Then D35I ?
F

Please do the same for L44E as well.
T

Data provenance: the Human Domainome abundance scans (Beltran et al. 2025)
